Value source: patent US5750826A

SYSTEM: mouse B2 bradykinin receptor (Mus musculus, UniProt P32299)
Construct: The PCR product begins 99 bp upstream of the initiator methionine codon and ends 49 bp downstream of the stop codon; expressed in transfected cells; host or cells: COS-7 (transient), pcDNAI-Neo
Sequence (P32299 1-366 isoform P32299-2): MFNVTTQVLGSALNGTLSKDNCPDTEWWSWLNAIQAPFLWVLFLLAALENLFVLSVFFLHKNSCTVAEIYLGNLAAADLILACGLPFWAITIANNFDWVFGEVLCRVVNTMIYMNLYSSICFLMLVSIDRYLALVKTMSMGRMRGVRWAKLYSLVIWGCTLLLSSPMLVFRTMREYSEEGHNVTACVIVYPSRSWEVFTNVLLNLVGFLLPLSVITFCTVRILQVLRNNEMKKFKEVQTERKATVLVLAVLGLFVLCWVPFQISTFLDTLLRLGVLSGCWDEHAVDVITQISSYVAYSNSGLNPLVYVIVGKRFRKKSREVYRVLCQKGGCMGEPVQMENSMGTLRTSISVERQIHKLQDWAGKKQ
ASSAY_NAME: Saturation binding to whole COS cells transiently expressing the mouse B2 receptor
CONDITION_NOTES: single high affinity site, read-out: KD for [3H]BK
Where no end group is shown, it is not given here.
PROPERTY: pKd
Value format note: pKd is -log10 of concentration (mol/L); just state the number.

### Prompt Give pKd only, for [^3 H]BK: radioligand [3H]BK used in binding assays (RPPGFSPFR; also: tritium label; UniProt P01042 381-389, looked up) , using mouse B2 bradykinin receptor (Mus musculus, UniProt P32299) data.
### Response 9.70
